test system: HCC1395 (Breast Carcinoma); assay: combination Emax (second highest fraction inhibited in the dose matrix, 72 h); higher = more inhibition; extreme values may be limits of the assay
reported_endpoint: combination Emax

INSERT INTO results (compound, numeric_readout) VALUES
  ('CN(CCO)CC[C@H](CSc1ccccc1)Nc1ccc(S(=O)(=O)NC(=O)c2ccc(N3CCC([C@@H](O)c4ccccc4-c4ccc(Cl)cc4)CC3)cc2)cc1S(=O)(=O)C(F)(F)F [AZD4320] + C[C@@H]1COCCN1C2=NC(=NC(=C2)C3(CC3)[S@](=N)(=O)C)C4=C5C=CNC5=NC=C4 [AZD6738] (first compound max 1 µM, 7x7, partner max 10 µM)', 0.819),
  ('CC(=O)c1c(C)c2cnc(Nc3ccc(N4CCNCC4)cn3)nc2n(C2CCCC2)c1=O [Palbociclib] + Cn1cnc2c(F)c(Nc3ccc(Br)cc3Cl)c(C(=O)NOCCO)cc21 [Selumetinib] (first compound max 10 µM, 7x7, partner max 10 µM)', 0.0651),
  ('N#Cc1cnc(Nc2cc(NC[C@H]3CNCCO3)c(C(F)(F)F)cn2)cn1 [SRA737] + C=CCn1c(=O)c2cnc(Nc3ccc(N4CCN(C)CC4)cc3)nc2n1-c1cccc(C(C)(C)O)n1 [AZD1775] (first compound max 10 µM, partner max 1 µM)', 0.753);
